system: anaesthetized dogs; assay: Therapeutic index: minimum arrhythmogenic dose / dose active on the coronary output, anaesthetized dogs; format: in vivo, dog; settings: Canis lupus familiaris, iv, read-out: dose which is active on the coronary output (increases the basal coronary output by 50%)
Readout name: ED (50% increase)
Please answer using a numeric value trailed by its unit.

// known answers, use as guide
Compound: COC(=O)C1=C(C)NC(C)=C(C(=O)O[C@@H]2CCCN(CCCC(=O)c3cccs3)C2)[C@H]1c1cccc([N+](=O)[O-])c1 [Example A, reference compound]
Readout name: ED (50% increase)
Result: 0.64 mg/kg

Compound: COC(=O)C1=C(C)NC(C)=C(C(=O)O[C@@H]2CCN(CCCC(=O)c3c(OC)cc(OC)cc3OC)C2)[C@H]1c1cccc([N+](=O)[O-])c1 [Example B, reference compound]
Readout name: ED (50% increase)
Result: 0.64 mg/kg

Compound: COC(=O)C1=C(C)NC(C)=C(C(=O)O[C@@H]2CCN(CCCCC(=O)c3c(OC)cc(OC)cc3OC)C2)[C@H]1c1cccc([N+](=O)[O-])c1
Readout name: ED (50% increase)
Result: 0.04 mg/kg

# batch size: 2; output ED (50% increase) per entry
1. COC(=O)C1=C(C)NC(C)=C(C(=O)O[C@@H]2CCCN(CCCCC(=O)c3cccs3)C2)[C@H]1c1cccc([N+](=O)[O-])c1
2. COC(=O)C1=C(C)NC(C)=C(C(=O)O[C@@H]2CCCN(CCCCC(=O)c3ccc[nH]3)C2)[C@H]1c1cccc([N+](=O)[O-])c1

Out:
1: 0.02 mg/kg; 2: 0.02 mg/kg
